Target: L1CAM endogenously expressed on MCF-7 and MDA-MB-231 cells (UniProt P32004)
Assay: flow cytometry, MDA-MB-231 cells
pEC50: −log10 of the molar value.

binder | pEC50
13G04 (antibody, V domains shown) VH: QVQLVQSGAEVKKPGASVKVSCKASGYTFIGYYLHWVRQAPGQGLEWMGWINPNSGGTNSAQKFQGRVTMTRDTSISTTYMDLSRLRSDDTAVYYCARGGLERRDAFDIWGQGTLVTVSS VL: DIQMTQSPSTLSASVGDRVTITCRASQSISNWLAWYQQKPGKAPNLLIYKASSLESGVPSRFSGSGSGTEFTLTISSLQPDDFATYYCQQYDTYRTFGQGTKVEIK | 8.17
143G03 (antibody, V domains shown) VH: QVQLRQSGAELVRPGTSVKMSCKASGYTFTNYYIHWVKQRPGQGLEWIGKIGPGSGSPYYNGMFKDKATLTVDTSSSTAYMQLSSLTSEDSAVYFCARWLLPFDYWGQGTTLTVSS VL: QIVLSQSPGILSASPGEKVTMTCRASSSVNYMHWYQQKSGSSPKPWIFATSILASGVPPRFSGSGSGTSYSLTISSVEAEDTATYYCQQFSSDPLTFGAGTKLELK | 9.05
13F04 (antibody, V domains shown) VH: QVQLQQPGAELVKPGASVKLSCKASGYIFISYWMHWVKQRPGQGLEWIGEINPRNGRTNYNEKFKSKATLTVDKSSSTAYMQLTSLTSEDSAVYYCARGGDYGGSFDYWGQGTTLTVSS VL: DIVLTQSPASLAVSLGQRATISCRASESVDSYGNSFMHWYQQKPGQPPKLLIYRASNLESGIPARFSGSGSRTDFTLTVNPVEADDVATYYCQQSNEDPWTFGGGTKLEIK | 8.77
14A10 (antibody, V domains shown) VH: EVQMVESGGGLVQPGGSLRLSCAAPGFIFSSYNMNWVRQAPGKGLEWVSYISSSSSTTYYADSVKGRFTISRDNAKNSLYLQMNSLRDEDTAVYYCASLYSGYDYYYYYGMDVWGQGTTVTVSS VL: DIVMTQTPLSSPVSLGQPASISCRSSQSLVHSDGNTYLSWLQQRPGQPPRVLIYKISKRFSGVPDRFSGSGAGTDFTLKISRVEAEDVGVYYCMQATQFPFTFGPGTKVDIK | 8.05

Cited source: patent US20260131000A1
